Here, each record is paired with measured herbicidal effect rating, SAGPY data.
System: Sagittaria pygmaea, L.
Experiment: Preemergence weed control under flooded paddy conditions, SAGPY (Arrowhead (Pygmaea)); also: meaning of each grade not given here
Assay type: in vivo
Details: Rate 0.2500 kg/ha; preemergence, flooded paddy; rated three to four weeks after treatment

Query: // returns reported herbicidal effect rating, SAGPY for input CC(C#N)c1nsc2ccc(-n3c(=O)cc(C(F)(F)F)n(C)c3=O)cc12 (stereo not drawn) [Example 583]
Result: 9.0

Query: // returns reported herbicidal effect rating, SAGPY for input Cn1c(C(F)(F)F)cc(=O)n(-c2ccc3snc(COCc4ccc(Cl)cc4Cl)c3c2)c1=O [Example 585]
Result: 2.5

Query: // returns reported herbicidal effect rating, SAGPY for input Cn1c(C(F)(F)F)cc(=O)n(-c2ccc3snc(CSc4ccccc4)c3c2)c1=O [Example 392]
Result: 0.0

Query: // returns reported herbicidal effect rating, SAGPY for input Cn1c(C(F)(F)F)cc(=O)n(-c2ccc3snc(C(C#N)=CC4CCCC4)c3c2)c1=O [Example 607]
Result: 3.0

Query: // returns reported herbicidal effect rating, SAGPY for input CNC(=O)OCc1nsc2ccc(-n3c(=O)cc(C(F)(F)F)n(C)c3=O)cc12 [Example 374]
Result: 9.0

Query: // returns reported herbicidal effect rating, SAGPY for input Cn1c(C(F)(F)F)cc(=O)n(-c2ccc3snc(C(C#N)=Cc4ccccc4F)c3c2)c1=O [Example 605]
Result: 7.0

Query: // returns reported herbicidal effect rating, SAGPY for input Cn1c(C(F)(F)F)cc(=O)n(-c2ccc3snc(C(=O)NS(=O)(=O)c4ccc5ccccc5c4)c3c2)c1=O [Example 357]
Result: 4.0

Query: // returns reported herbicidal effect rating, SAGPY for input CC(=O)NCCOC(=O)c1nsc2ccc(-n3c(=O)cc(C(F)(F)F)n(C)c3=O)cc12 [Example 387]
Result: 6.0

Query: // returns reported herbicidal effect rating, SAGPY for input Cn1c(C(F)(F)F)cc(=O)n(-c2ccc3snc(COS(C)(=O)=O)c3c2)c1=O [Example 363]
Result: 9.0

Query: // returns reported herbicidal effect rating, SAGPY for input COC(=O)COc1ccc(C)cc1-c1noc2cc(F)c(-n3c(=O)cc(C(F)(F)F)n(C)c3=O)cc12 [Example 359]
Result: 4.5

---
Query: // returns reported herbicidal effect rating, SAGPY for input CC/C(C=O)=C\c1nsc2ccc(-n3c(=O)cc(C(F)(F)F)n(C)c3=O)cc12 [Example 567]
Result: 0.0

Query: // returns reported herbicidal effect rating, SAGPY for input Cn1c(C(F)(F)F)cc(=O)n(-c2ccc3snc(COCc4ccc(Cl)c(Cl)c4)c3c2)c1=O [Example 586]
Result: 0.0

Query: // returns reported herbicidal effect rating, SAGPY for input Cc1cccc(COCc2nsc3ccc(-n4c(=O)cc(C(F)(F)F)n(C)c4=O)cc23)c1 [Example 587]
Result: 5.0

Query: // returns reported herbicidal effect rating, SAGPY for input CCCS(=O)(=O)NC(=O)C(C)Oc1ccc(C)cc1-c1nsc2ccc(-n3c(=O)cc(C(F)(F)F)n(C)c3=O)cc12 (stereo not drawn) [Example 569]
Result: 9.0

Query: // returns reported herbicidal effect rating, SAGPY for input Cn1c(C(F)(F)F)cc(=O)n(-c2ccc3snc(C#N)c3c2)c1=O [Example 373]
Result: 9.0
